List of Kd values.
# ASSAYED_SYSTEM: T1, recombinant human TIGIT (human, UniProt Q495A1 22-141, limits assumed)
# T1 construct: recombinant human TIGIT used in Carterra SPR; also called hTIGIT
# T1 sequence (looked up): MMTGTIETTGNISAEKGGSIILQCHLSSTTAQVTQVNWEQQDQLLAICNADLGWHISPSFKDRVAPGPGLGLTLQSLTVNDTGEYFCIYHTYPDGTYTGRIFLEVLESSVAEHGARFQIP
# MEASUREMENT_PROTOCOL: SPR Carterra, average

>  <BINDER>
TIGIT-SC206 (Fc fusion, VHH-Fc fusion in assay) VHH: EVQLVESGGGLVQPGGSLRLSCAASGFLFDSYVMGWFRQAPGKEREFVAAIWRSGTLKAYADSVKGRFTISADNSKNTAYLQMNGLKPEDTAVYYCAGVGTDYGDYLFNYWGQGTLVTVSS

>  <Kd>
15.6 nM

$$$$
>  <BINDER>
TIGIT-SC37 (Fc fusion, VHH-Fc fusion in assay) VHH: EVQLVESGGGLVQPGGSLRLSCAASGNTFSGGFMGWFRQAPGKEREWVASVLRGGYTWYADSVKGRFTISADNSKNTAYLQMNSLKPEDTAVYYCVFGGVWQDVWGQGTLVTVSS

>  <Kd>
23.7 nM

$$$$
>  <BINDER>
TIGIT-SC18 (Fc fusion, VHH-Fc fusion in assay) VHH: EVQLVESGGGLVQPGGSLRLSCAASGFSLDYYAMGWFRQAPGKEREVVAIIDTNGDNTLYADSVKGRFTISADNSKNTAYLQMNSLKPEDTAVYYCARGRGYGDYVGAYWGQGTLVTVSS

>  <Kd>
16.3 nM

$$$$
>  <BINDER>
TIGIT-SC124 (Fc fusion, VHH-Fc fusion in assay) VHH: EVQLVESGGGLVQPGGSLRLSCAASGSIFSSNWMGWFRQAPGKEREMVAAIDWSGGSALYADSVKGRFTISADNSKNTAYLQMNSLKPEDTAVYYCAKDALSNSARFDHWGQGTLVTVSS

>  <Kd>
51 nM

$$$$
>  <BINDER>
TIGIT-SC60 (Fc fusion, VHH-Fc fusion in assay) VHH: EVQLVESGGGLVQPGGSLRLSCAASGFTFSPSWMGWFRQAPGKEREWVASVLRGGYTWYADSVKGRFTISADNSKNTAYLQMNSLKPEDTAVYYCARDDLDYWGQGTLVTVSS

>  <Kd>
84.6 nM

$$$$
>  <BINDER>
TIGIT-SC123 (Fc fusion, VHH-Fc fusion in assay) VHH: EVQLVESGGGLVQPGGSLRLSCAASGSIFSGNTMGWFRQAPGKEREFVAAISWSGAYTEYADSVKGRFTISADNSKNTAYLQMNSLKPEDTAVYYCAREGYYGSGSYLVYWGQGTLVTVSS

>  <Kd>
47.3 nM

$$$$
>  <BINDER>
TIGIT-SC105 (Fc fusion, VHH-Fc fusion in assay) VHH: EVQLVESGGGLVQPGGSLRLSCAASGFAFSRYGMGWFRQAPGKERELVATIGWSGSSTFYADSVKGRFTISADNSKNTAYLQMNSLKPEDTAVYYCARDGGPYYYGLDVWGQGTLVTVSS

>  <Kd>
189 nM

$$$$
>  <BINDER>
TIGIT-SC71 (Fc fusion, VHH-Fc fusion in assay) VHH: EVQLVESGGGLVQPGGSLRLSCAASGSIRSLNAMGWFRQAPGKEREFVAAINWDSARTYYADSVKGRFTISADNSKNTAYLQMNSLKPEDTAVYYCARWSAKRHSDTMTYYMDVWGQGTLVTVSS

>  <Kd>
10.5 nM

$$$$
